# RUN DESCRIPTION: NCI Yeast Anticancer Drug Screen. Data for the sgs1 mgt1 strain (AID 161);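 further: 0% = growth of cultures given vehicle only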
# SETTINGS: S. cerevisiae sgs1 mgt1 strain, at 50.0 µM, stronger effect = higher value
The panel holds about 79,000 compounds, 15% with a hit somewhere; the sample as a whole holds those more often.
READOUT NAME: growth inhibition (%)
Numbers only, in %.

O=C(/C=C(\[O-])c1ccccc1)CCCCCCC(=O)/C=C(\[O-])c1ccccc1.O=C(/C=C(\[O-])c1ccccc1)CCCCCCC(=O)/C=C(\[O-])c1ccccc1.O=C(/C=C(\[O-])c1ccccc1)CCCCCCC(=O)/C=C(\[O-])c1ccccc1.[Y+3].[Y+3]
8.75
COc1ccc(N=C(C)C(C)=Nc2ccc(OC)cc2)cc1
-15.1
COc1ccc2c(c1)N(C(C)=O)CN1C(=O)CCC21 (centres undefined)
-1.25

growth inhibition measured on C=C1CCN(c2ccccc2)C1=O = -5.15
